Listed here are compounds together with their documented Mydriatic effect, % dilatation by 1 mg/kg i.v..
# Test system: albino mice
# Protocol: Mydriatic effect, pupil diameter in unanaesthetized mice after intravenous dosing
# Type: in vivo
The answer is to be given in %; state only the numeric part.

Q: What measured Mydriatic effect, % dilatation by 1 mg/kg i.v. is associated with `CC(C)N(CCN(C)C(=O)C(c1ccccc1)c1ccccc1)C(C)C.Cl` on albino mice?
A: 2

Continuing:
Q: What measured Mydriatic effect, % dilatation by 1 mg/kg i.v. is associated with `CN(CCCN(C)C(C)(C)C)C(=O)C(c1ccccc1)c1ccccc1.Cl` on albino mice?
A: 0

----------
Listed here are compounds together with their documented Mydriatic effect, % dilatation by 1 mg/kg i.v..
# Tested on: albino mice
# Protocol: Mydriatic effect, pupil diameter in unanaesthetized mice after intravenous dosing
# Assay type: in vivo
The answer is to be given in %; state only the numeric part.

See these solved cases before continuing.
Q: Suppose we examine the compound CCN(CC)CC#CCOC(=O)C(O)(c1ccccc1)C1CCCCC1 (stereo not shown) [Oxybutynin, reference compound] ; what Mydriatic effect, % dilatation by 1 mg/kg i.v. value has been reported?
A: 95

Q: Subsequent entry: CC(CC(c1ccccc1)c1ccccc1)NC(C)(C)C (stereo not shown) [Terodiline, reference compound]
A: 1

Q: Subsequent entry: `CC(C)N(CCCN(C)C(=O)C(c1ccccc1)c1ccccc1)C(C)C`
A: 0

Kindly review the next compound as well.
Q: Suppose we examine the compound `CC(C)N(CCNC(=O)C(c1ccccc1)c1ccccc1)C(C)C` ; what Mydriatic effect, % dilatation by 1 mg/kg i.v. value has been reported?
A: 11

Where these numbers come from: patent EP0367040A1
